Target: Tubulin (Sus scrofa, UniProt P02554+P02550)
Experiment: Inhibition of pig brain tubulin polymerization after 30 mins by turbidimetry
Recorded Endpoint: IC50 (nM)

COc1cc(C(=O)/C=C2\c3cccc(Cl)c3C(=O)c3cccc(Cl)c32)cc(OC)c1OC : 360

1 = COc1ccc(C(=O)/C=C2\c3cccc(Cl)c3C(=O)c3cccc(Cl)c32)cc1OC
2 = COc1ccc(CC2c3cccc(Cl)c3C(=O)c3c(Cl)cccc32)cc1O
3 = COc1cc(C=C2c3cccc(Cl)c3C(=O)c3c(Cl)cccc32)ccc1O
4 = COc1ccc(/C=C2\c3cccc(Cl)c3C(=O)c3cccc(Cl)c32)cc1O
5 = COc1ccc(C=C2c3cccc(O)c3C(=O)c3c(O)cccc32)cc1O
Exam item: list the entries in increasing order of IC50. # the answer lists labels in the order requested
Marked response: 4, 1, 2, 5, 3

###

Tested on: RKO
Test: Antiproliferative activity against human RKO cells expressing p27Kip1 after 48 hrs by XTT assay
Type: functional, cell-based
pIC50: −log10 of the molar value.
Recorded pIC50 by entry

COc1ccc(C=C2c3cccc(Cl)c3C(=O)c3c(Cl)cccc32)c(OC)c1O : < 5.05
COc1cc2c(c(OC)c1OC)-c1ccc(OC)c(=O)cc1[C@@H](NC(C)=O)CC2 [COLCHICINE] : < 5.00
COC(=O)Nc1nc2cc(C(=O)c3cccs3)ccc2[nH]1 [NOCODAZOLE] : < 5.00
CC(=O)O[C@H]1C(=O)[C@@]2(C)[C@H]([C@H](OC(=O)c3ccccc3)[C@]3(O)C[C@H](OC(=O)[C@H](O)[C@@H](NC(=O)c4ccccc4)c4ccccc4)C(C)=C1C3(C)C)[C@]1(OC(C)=O)CO[C@@H]1C[C@@H]2O [PACLITAXEL] : < 5.52

Exam item: Name the recorded pIC50 of the compound listed here: `COc1ccc(C=C2c3cccc(Cl)c3C(=O)c3c(Cl)cccc32)cc1O`
Marked response: < 5.05

###

System: P388
Assay: Antiproliferative activity against mouse P388 cells after 48 hrs by XTT assay
Type: functional, cell-based
Settings: P388, 48 h
pIC50: −log10 of the molar value.
Recorded Endpoint: pIC50

COc1ccc(C=C2c3cccc(Cl)c3C(=O)c3c(Cl)cccc32)cc1O : 6.41
COc1ccc(C=C2c3cccc(Cl)c3C(=O)c3c(Cl)cccc32)c(OC)c1O : 6.49

###

Experiment: Cell cycle arrest in human KB/HeLa cells assessed as accumulation at G2/M phase after 24 hrs using propidium iodide staining by FACS analysis
Assay type: functional, cell-based
Recorded Endpoint: EC50 (nM)

Some solved cases for reference:
COC(=O)Nc1nc2cc(C(=O)c3cccs3)ccc2[nH]1 : 91
COc1ccc(C=C2c3cccc(Cl)c3C(=O)c3c(Cl)cccc32)cc1O : 118
COc1cc2c(c(OC)c1OC)-c1ccc(OC)c(=O)cc1[C@@H](NC(C)=O)CC2 : 14
COc1ccc(C=C2c3cccc(Cl)c3C(=O)c3c(Cl)cccc32)c(OC)c1O : 111

I = CC(=O)O[C@H]1C(=O)[C@@]2(C)[C@H]([C@H](OC(=O)c3ccccc3)[C@]3(O)C[C@H](OC(=O)[C@H](O)[C@@H](NC(=O)c4ccccc4)c4ccccc4)C(C)=C1C3(C)C)[C@]1(OC(C)=O)CO[C@@H]1C[C@@H]2O
II = CC[C@]1(O)C[C@H]2CN(CCc3c([nH]c4ccccc34)[C@@](C(=O)OC)(c3cc4c(cc3OC)N(C=O)[C@H]3[C@@](O)(C(=O)OC)[C@H](OC(C)=O)[C@]5(CC)C=CCN6CC[C@]43[C@@H]65)C2)C1
Exam item: When the recorded EC50 values are compared, which is smaller: that of I or that of II ? State your choice using its label.
Marked response: II

###

Tested on: L1210
Assay: Antiproliferative activity against mouse L1210 cells after 48 hrs by XTT assay
Type: functional, cell-based
Conditions: L1210, 48 h
Recorded Endpoint: IC50 (nM)

a = COc1ccc(C=C2c3cccc(Cl)c3C(=O)c3c(Cl)cccc32)cc1O
b = COc1ccc(C=C2c3cccc(Cl)c3C(=O)c3c(Cl)cccc32)c(OC)c1O
Exam item: When the recorded IC50 values are compared, which is smaller: that of a or that of b ? State your choice using its label.
Marked response: b

###

Assay: Antiproliferative activity against multi drug-resistant rat LT12 cells after 48 hrs by XTT assay
Type: functional, cell-based
Conditions: LT12, 48 h
Recorded Endpoint: pIC50
Value format note: pIC50 is -log10 of concentration (mol/L); just state the number.

Some solved cases for reference:
CC(=O)O[C@H]1C(=O)[C@@]2(C)[C@H]([C@H](OC(=O)c3ccccc3)[C@]3(O)C[C@H](OC(=O)[C@H](O)[C@@H](NC(=O)c4ccccc4)c4ccccc4)C(C)=C1C3(C)C)[C@]1(OC(C)=O)CO[C@@H]1C[C@@H]2O [PACLITAXEL] : 6.40
COc1ccc(C=C2c3cccc(Cl)c3C(=O)c3c(Cl)cccc32)c(OC)c1O : 6.77
CC[C@]1(O)C[C@@H]2CN(CCc3c([nH]c4ccccc34)[C@@](C(=O)OC)(c3cc4c(cc3OC)N(C)[C@H]3[C@@](O)(C(N)=O)[C@H](O)[C@]5(CC)C=CCN6CC[C@]43[C@@H]65)C2)C1 [VINDESINE] : 6.59

Exam item: Name the recorded pIC50 of the compound listed here: `COc1ccc(C=C2c3cccc(Cl)c3C(=O)c3c(Cl)cccc32)cc1O`
Marked response: 6.54

Exam item: Name the recorded pIC50 of the compound listed here: COC(=O)Nc1nc2cc(C(=O)c3cccs3)ccc2[nH]1 [NOCODAZOLE]
Marked response: 7.15

###

Target: Tubulin (Sus scrofa, UniProt P02554+P02550)
Assay: Inhibition of pig brain tubulin polymerization after 30 mins by turbidimetry
Recorded Endpoint: IC50 (µM)

COc1cccc(C(=O)/C=C2\c3cccc(Cl)c3C(=O)c3cccc(Cl)c32)c1 : 0.69

P = COc1ccc(C(=O)/C=C2\c3cccc(Cl)c3C(=O)c3cccc(Cl)c32)cc1
Q = O=C(/C=C1\c2cccc(Cl)c2C(=O)c2cccc(Cl)c21)c1ccccc1
Exam item: IC50 comparison. Which is larger, P or Q ? State your choice using its label.
Marked response: Q

###

Target: Tubulin (Sus scrofa, UniProt P02554+P02550)
Assay: Inhibition of pig brain tubulin polymerization after 30 mins by turbidimetry
Recorded Endpoint: IC50 (µM)

COc1ccc(C=C2c3cccc(Cl)c3C(=O)c3c(Cl)cccc32)c(OC)c1O : 0.36
CC(=O)Oc1ccc(C(=O)/C=C2\c3cccc(Cl)c3C(=O)c3cccc(Cl)c32)cc1 : 0.41
COc1cc(C(=O)C=C2c3cccc(Cl)c3C(=O)c3c(Cl)cccc32)cc(OC)c1OC : 1.62
COc1cc(C=C2c3cccc(Cl)c3C(=O)c3c(Cl)cccc32)cc(OC)c1O : 1.66
COc1ccc(/C=C2\c3cccc(Cl)c3C(=O)c3cccc(Cl)c32)cc1 : 0.69

a = COc1ccc(C=C2c3cccc(Cl)c3C(=O)c3c(Cl)cccc32)c(O)c1
b = COc1ccc(C=C2c3cccc(Cl)c3C(=O)c3c(Cl)cccc32)cc1
c = O=C(/C=C1\c2cccc(Cl)c2C(=O)c2cccc(Cl)c21)c1ccc(Br)cc1
d = COc1ccc(C=C2c3cccc(O)c3C(=O)c3c(O)cccc32)cc1
Exam item: list the entries in increasing order of IC50. # the answer lists labels in the order requested
Marked response: c, b, a, d

###

Target: Tubulin (Sus scrofa, UniProt P02554+P02550)
Experiment: Inhibition of pig brain tubulin polymerization after 30 mins by turbidimetry
Recorded Endpoint: IC50

COc1ccc(/C=C2/c3cccc(Cl)c3C(=O)c3cccc(Cl)c32)cc1 : 520 nM
COc1cccc(C=C2c3cccc(Cl)c3C(=O)c3c(Cl)cccc32)c1O : > 2000 nM
COc1ccc(C=C2c3cccc(Cl)c3C(=O)c3c(Cl)cccc32)cc1O : 360 nM
COc1ccc(C=C2c3cccc(O)c3C(=O)c3c(O)cccc32)cc1OC : > 10000 nM
COc1ccc(C(=O)C=C2c3cccc(Cl)c3C(=O)c3c(Cl)cccc32)cc1 : 730 nM
COc1cc(C=C2c3cccc(Cl)c3C(=O)c3c(Cl)cccc32)cc(OC)c1OC : > 10000 nM
O=C1c2c(O)cccc2C(=Cc2ccc([N+](=O)[O-])cc2)c2cccc(O)c21 : > 10000 nM
COc1cc(/C=C2/c3cccc(Cl)c3C(=O)c3cccc(Cl)c32)ccc1O : 380 nM

Exam item: Name the recorded IC50 of the compound listed here: `O=C1c2c(O)cccc2C(=Cc2ccccc2)c2cccc(O)c21`
Marked response: > 10000 nM

Exam item: Name the recorded IC50 of the compound listed here: `COc1cc(C=C2c3cccc(O)c3C(=O)c3c(O)cccc32)cc(OC)c1OC`
Marked response: > 10000 nM

Exam item: Name the recorded IC50 of the compound listed here: `COc1ccc(C=C2c3cccc(OC)c3C(=O)c3c(OC)cccc32)cc1`
Marked response: > 2000 nM

Exam item: Name the recorded IC50 of the compound listed here: `COc1ccc(CC2c3cccc(Cl)c3C(=O)c3c(Cl)cccc32)cc1`
Marked response: > 2000 nM
